Taken from ChEMBL document CHEMBL1961873.

biological target: RAC-beta serine/threonine-protein kinase (Homo sapiens) (UniProt P31751); details: at 0.1 µM;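 also: reported figure is the mean percent inhibition of AKT2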
Sequence (P31751 whole entry): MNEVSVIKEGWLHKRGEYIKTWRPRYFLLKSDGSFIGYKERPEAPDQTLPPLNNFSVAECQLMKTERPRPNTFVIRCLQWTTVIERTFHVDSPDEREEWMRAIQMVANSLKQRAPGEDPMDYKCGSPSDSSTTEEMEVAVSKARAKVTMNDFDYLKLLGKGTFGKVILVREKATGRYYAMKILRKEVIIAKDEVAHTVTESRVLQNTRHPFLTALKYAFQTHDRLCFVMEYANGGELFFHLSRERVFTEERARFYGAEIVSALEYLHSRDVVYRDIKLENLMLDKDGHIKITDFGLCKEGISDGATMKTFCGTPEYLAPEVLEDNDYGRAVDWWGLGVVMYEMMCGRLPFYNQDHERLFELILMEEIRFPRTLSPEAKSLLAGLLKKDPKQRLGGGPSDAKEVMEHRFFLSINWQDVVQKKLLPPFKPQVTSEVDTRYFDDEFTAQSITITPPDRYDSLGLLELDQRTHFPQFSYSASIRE
Catalogue of compounds with associated inhibition
Provide the reading as a plain figure in %.

Examples from the recorded data:
COc1ccc2cc(-c3c(-c4ccncc4)nc(-c4ccc(S(C)(=O)=O)cc4C)n3C)ccc2c1: 2.93
FC(F)(F)c1cccc(Nc2nccc(-c3cnn4nc(-c5ccccc5)ccc34)n2)c1: 0.62
Clc1ccc(CNc2nccc(-c3cnn4ncccc34)n2)cc1: 0.17
NS(=O)(=O)c1ccc(N/N=C2\C(=O)Nc3ccc(C(=O)NCCCn4ccnc4)cc32)cc1: 2.05
CCS(=O)(=O)c1ccc(OC)c(Nc2ncc(-c3ccccc3Cl)o2)c1: 0.22

Problem: GET /values?readout=inhibition&item= `c1ccc(Oc2ccc(Nc3ncc(-c4ccccc4)o3)cc2)cc1`
Solution: 0.18

Problem: Please answer likewise for `Fc1ccc(-c2ncn(CCCN3CCOCC3)c2-c2ccncc2)cc1`
Solution: 0.74
